Numbers sourced from patent US20230086702A1.

# experimentalTarget: LZK (Homo sapiens, UniProt O43283)
# Construct: 10 nM LZK, catalytic domain, Carna Biosiences in assay buffer; purchased Carna Biosciences ('Carna Biosiences' [sic])
# Sequence (O43283 168-409 limits assumed): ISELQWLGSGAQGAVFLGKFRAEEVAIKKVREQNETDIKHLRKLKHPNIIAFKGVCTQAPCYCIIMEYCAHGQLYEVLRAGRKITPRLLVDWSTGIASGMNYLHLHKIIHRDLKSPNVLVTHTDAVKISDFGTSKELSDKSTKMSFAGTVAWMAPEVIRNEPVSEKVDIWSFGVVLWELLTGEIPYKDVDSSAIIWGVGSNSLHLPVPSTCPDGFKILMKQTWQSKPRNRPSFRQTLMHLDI
# measurementDescription: LZK biochemical assay (TR-FRET, MKK7 phosphorylation)
pIC50: −log10 of the molar value.
Criterion: pIC50 meeting or surpassing 8. Met: satisfied. Not met: not satisfied.

// below: answered compounds
CC(C)C(c1ccc(C(F)F)nc1)n1cc(-c2cc(-c3ccc(C4CC4)nc3)n3nc(N)nc3c2)cn1 (single isomer, unassigned) [II-53] ... not satisfied
CCS(=O)(=O)c1cccc(-c2cc(-c3cnn(C(c4ccc(C(F)(F)F)nc4)C4CCOCC4)c3)cn3nc(N)nc23)c1 (racemic) [II-16] ... satisfied
CCC(c1ccc(C(F)(F)F)nc1)n1cc(-c2cc(-c3cccc(C(C)(C)O)c3)c3nc(N)nn3c2)cn1 (racemic) [II-7] ... satisfied

Q. Please tell me: is the compound Nc1nc2c(-c3ccc(=O)n(CC(F)F)c3)cc(-c3cnn(C(c4ccc(C(F)(F)F)nc4)C4CCOCC4)c3)cn2n1 (single isomer, unassigned) [II-158] at or over 8 in terms of pIC50?
A. satisfied

Q. Please tell me: is the compound Nc1nc2c(-c3ccn(CC(F)F)c(=O)c3)cc(-c3cnn(C(c4ccc(C(F)(F)F)nc4)C4CCOCC4)c3)cn2n1 (single isomer, unassigned) [II-174] at or over 8 in terms of pIC50?
A. satisfied

Q. Please tell me: is the compound CCC(c1ccc(C(F)F)nc1)n1cc(-c2cc(-c3ccc(C(F)(F)F)nc3)n3nc(N)nc3c2)cn1 (single isomer, unassigned) [II-63] at or over 8 in terms of pIC50?
A. not satisfied

Q. Please tell me: is the compound Nc1nc2c(-c3ccc(C(F)(F)F)nc3)cc(-c3cnn(C4CCN(C5COC5)CC4)c3)cn2n1 at or over 8 in terms of pIC50?
A. not satisfied

Q. Please tell me: is the compound CC(C)C(c1ccc(C(F)(F)F)nc1)n1cc(-c2cc(-c3ccc(C(F)(F)F)nc3)c3nc(N)nn3c2)cn1 (racemic) [II-40] at or over 8 in terms of pIC50?
A. not satisfied
